Source listed as ChEMBL document CHEMBL1138280.

- experimentalTarget: Metabotropic glutamate receptor 2 (Rattus norvegicus)
- Sequence (P31421 whole entry): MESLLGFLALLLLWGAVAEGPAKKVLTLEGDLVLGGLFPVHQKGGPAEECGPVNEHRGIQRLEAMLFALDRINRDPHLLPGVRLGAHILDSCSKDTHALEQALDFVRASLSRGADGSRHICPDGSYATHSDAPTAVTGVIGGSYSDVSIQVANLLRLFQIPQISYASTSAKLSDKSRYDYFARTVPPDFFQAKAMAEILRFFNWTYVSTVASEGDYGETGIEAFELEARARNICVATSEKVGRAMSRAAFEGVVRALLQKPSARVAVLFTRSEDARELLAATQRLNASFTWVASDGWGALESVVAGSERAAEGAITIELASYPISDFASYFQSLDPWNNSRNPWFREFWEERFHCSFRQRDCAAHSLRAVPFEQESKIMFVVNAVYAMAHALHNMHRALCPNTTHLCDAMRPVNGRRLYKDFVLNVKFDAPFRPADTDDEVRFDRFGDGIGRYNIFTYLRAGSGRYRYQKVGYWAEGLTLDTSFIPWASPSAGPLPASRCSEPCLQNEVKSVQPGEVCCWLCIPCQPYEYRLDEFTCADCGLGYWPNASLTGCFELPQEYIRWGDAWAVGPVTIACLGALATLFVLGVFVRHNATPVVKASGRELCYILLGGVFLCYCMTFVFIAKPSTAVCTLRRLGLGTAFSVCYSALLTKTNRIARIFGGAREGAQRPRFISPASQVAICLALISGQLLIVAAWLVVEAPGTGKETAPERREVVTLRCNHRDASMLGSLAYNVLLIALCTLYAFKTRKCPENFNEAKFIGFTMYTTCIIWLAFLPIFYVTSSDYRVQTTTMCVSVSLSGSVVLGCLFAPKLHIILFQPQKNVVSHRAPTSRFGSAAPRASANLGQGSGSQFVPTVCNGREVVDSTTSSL
- experimentDescription: Displacement of [3H]LY354740 from rat mGluR2 expressed in CHO cells
- Type: cell-based
testReadout: pIC50
Notebook: values listed as pIC50 are -log10 of the concentration (mol/L).

Look over these answered cases.
- molecularString: "N#Cc1cccc(C2=Nc3cc(OCC(=O)O)c(C#Cc4ccccc4)cc3NC(=O)C2)c1"
  testReadout: "pIC50"
  obsValue: 6.22
- molecularString: "Cc1ccc2c(c1)NC(=O)CC(c1cccc(C(F)(F)F)c1)=N2"
  testReadout: "pIC50"
  obsValue: 5.82
- molecularString: "N#Cc1cccc(C2=Nc3cc(N4CC[S+]([O-])CC4)c(C#Cc4ccccc4)cc3NC(=O)C2)c1"
  testReadout: "pIC50"
  obsValue: 6.35
- molecularString: "N#Cc1cccc(C2=Nc3ccc(C#Cc4ccccc4F)cc3NC(=O)C2)c1"
  testReadout: "pIC50"
  obsValue: 7.52

Ask | What value of pIC50 on Metabotropic glutamate receptor 2 (Rattus norvegicus) does COc1cccc(C2=Nc3ccc(C#Cc4ccccc4)cc3NC(=O)C2)c1 have?
Reply | 6.02

Ask | What value of pIC50 on Metabotropic glutamate receptor 2 (Rattus norvegicus) does N#Cc1cccc(C2=Nc3ccc(C#Cc4nccs4)cc3NC(=O)C2)c1 have?
Reply | 6.52

Ask | What value of pIC50 on Metabotropic glutamate receptor 2 (Rattus norvegicus) does Cc1ccc(C#Cc2ccc3c(c2)NC(=O)CC(c2cccc(C#N)c2)=N3)cc1 have?
Reply | 7.19

###

- experimentalTarget: Metabotropic glutamate receptor 2 (Rattus norvegicus)
- experimentDescription: Displacement of [3H]LY354740 from rat mGluR2 expressed in CHO cells
- Type: cell-based
pIC50: −log10 of the molar value.
Tag: Met if measured pIC50 is not below 7, Not met if it is.

# example entries with known answers
- molecularString: "Cc1ccc2c(c1)NC(=O)CC(c1cccc(C#N)c1)=N2"
  classAssignment: "Not met"
- molecularString: "Cc1ccc2c(c1)NC(=O)CC(c1cccc(Cl)c1)=N2"
  classAssignment: "Not met"
- molecularString: "C=C(C)C#Cc1ccc2c(c1)NC(=O)CC(c1cccc(C#N)c1)=N2"
  classAssignment: "Not met"

Ask | In plain terms: is recorded pIC50 at least 7 for CC(C)(C)NC(=O)COc1cc2c(cc1C#Cc1ccccc1)NC(=O)CC(c1cccc(C#N)c1)=N2 ?
Reply | Met

Ask | In plain terms: is recorded pIC50 at least 7 for O=C1CC(c2cccc(C(F)(F)F)c2)=Nc2ccc(C#Cc3ccccc3)cc2N1 ?
Reply | Not met

Ask | In plain terms: is recorded pIC50 at least 7 for N#Cc1cccc(C2=Nc3ccc(C#Cc4cccs4)cc3NC(=O)C2)c1 ?
Reply | Met

Ask | In plain terms: is recorded pIC50 at least 7 for COCCOc1cc2c(cc1C#Cc1ccccc1)NC(=O)CC(c1cccc(C#N)c1)=N2 ?
Reply | Met

Ask | In plain terms: is recorded pIC50 at least 7 for N#CCOc1cc2c(cc1C#Cc1ccccc1)NC(=O)CC(c1cccc(C#N)c1)=N2 ?
Reply | Met

Ask | In plain terms: is recorded pIC50 at least 7 for O=C1CC(c2cccc(C(=O)N3CCOCC3)c2)=Nc2ccc(C#Cc3ccccc3)cc2N1 ?
Reply | Not met
